Entries with reported IC50 on Cyclin-dependent kinase 2 (Homo sapiens, UniProt P24941)

Please state recorded IC50 (tested on Cyclin-dependent kinase 2 (Homo sapiens, UniProt P24941)) of COc1cccc2c1cc([N+](=O)[O-])c1c(C(=O)O)cc3c(c12)OCO3 [ARISTOLOCHIC ACID]
> 20 µM

Report IC50 for COc1ccc2c(c1O)-c1c(O)c(OC)cc3c1[C@H](C2)N(C)CC3 [CORYTUBERINE] tested on Cyclin-dependent kinase 2 (Homo sapiens, UniProt P24941).
> 50 µM

So what IC50 did COC1=C[C@@H]2[C@@H]3Cc4ccc(OC)c(O)c4[C@]2(CCN3C)CC1=O [SINOMENINE] get with Cyclin-dependent kinase 2 (Homo sapiens, UniProt P24941)?
> 50 µM

Give recorded IC50 with Cyclin-dependent kinase 2 (Homo sapiens, UniProt P24941) for the following compound: COc1c(O)ccc2c1cc([N+](=O)[O-])c1c(C(=O)O)cc3c(c12)OCO3 [7-HYDROXY ARISTOLOCHIC A]
25 µM

Short answer please: IC50, Cyclin-dependent kinase 2 (Homo sapiens, UniProt P24941), entry COc1cc(OC)c2cc3c4c(cc5c(c4c2c1)OCO5)C(=O)N3
> 15 µM

More entries:
For Cyclin-dependent kinase 2 (Homo sapiens, UniProt P24941), provide IC50 of COc1ccc2nc3[nH]nc(C)c3c(OC)c2c1 please.
0.02 µM

What measured IC50 is associated with O=C(O)c1cc2c(c3c1c([N+](=O)[O-])cc1ccc(O)cc13)OCO2 [ARISTOLOCHIC ACID C] on Cyclin-dependent kinase 2 (Homo sapiens, UniProt P24941)?
30 µM

Param readout = IC50; param system = Cyclin-dependent kinase 2 (Homo sapiens, UniProt P24941); param query = COc1ccc2c(c1O)-c1c(OC)c(OC)cc3c1[C@H](C2)N(C)CC3 [ISOCORYDINE] ; response: value
> 50 µM

Any idea what IC50 came out for COc1cc(OC)c2cc([N+](=O)[O-])c3c(C(=O)O)cc4c(c3c2c1)OCO4 [ARISTOLOCHIC ACID IV] on Cyclin-dependent kinase 2 (Homo sapiens, UniProt P24941)?
> 20 µM

###

Measured on: Cyclin-dependent kinase 2 (Homo sapiens)
Test details: Inhibition of CDK2 at 50 uM
The source made the active and inactive calls. The rule behind the calls is not given here.
Recorded metric: Activity

// returns reported Activity for input COc1cc(O)cc2c1cc([N+](=O)[O-])c1c(C(=O)O)cc3c(c12)OCO3
inactive

Look at this compound and give its reported Activity. O=C1Nc2cc3ccccc3c3c(O)c(O)cc1c23
inactive

Look up Activity: O=C1Nc2c(Cl)c3ccccc3c3c(O)c(O)cc1c23
inactive

Fill in the blank: the reported Activity of COc1cccc2c1cc([N+](=O)[O-])c1c(C(=O)O)cc(O)c(O)c12 is ____.
inactive
